System: MS2 coat protein
Test: apparent KD of MS2 coat protein; designed switch direction (-1 OFF switch, 1 ON switch): 1; higher = weaker reporter binding
Details: Eterna round: R95; input ligand: microRNA oligo, concentration not stated
# apparent KD of MS2 coat protein values compiled below
Please give a number only; it is taken to be in nM.

Solved cases below.
residueString	readoutUnits	apparent KD of MS2 coat protein
GGUCCAGCCUGAGCUGGACAAAAGCAUGUACAUGAGGAUCACCCAUGUCAUGUACAAGUUUUUUGCUCGUCUUAAAA [JL mod - D87 - 12] (puzzle: Sensor for hsa-mir-208a)	nM	10.6
GUUAAACAUGAGGAUCACCCAUGUCAAUGUAGUCGAGGAUAUGGGCAGCUGUGAGGCGUACUAGAAGGCGAAAAGG [Mat - Same State 1 - Mod of JL - D10] (puzzle: Same State 1)	nM	266
GGAGAACAUGAGGAUCACCCAUGUAGGCGUUAGCUAGGAUAUGCGGGAAGGAAGAGAGAAGCAGAAGGAGUAGGUA [JR_SS1_Sub031] (puzzle: Same State 1)	nM	64.4
GCCGCACAUGAGGAUCACCCAUGUAAUUACAUGGGAGGAUAUCAGUGCUCGAAAGAGCACUGAGAAGGCCUGUGGC [SS1 - Omei A v2] (puzzle: Same State 1)	nM	31.9
UGAAUACAUGAGGAUCACCCAUGUCAACGUAGUCGAGGAUAUGGGCAGCCGUGAGGCGUACCAGAAGGCGAAGAGG [Mat - Same State 1 - Mod of JL - D4] (puzzle: Same State 1)	nM	88.8

Query :: Look up apparent KD of MS2 coat protein with MS2 coat protein for this sequence: CAAACUUAGUAGGAUAGGUACCCAGGAUGACAUGAGGAUCACCCAUGUAAGAGCUUUUUGCUCGUCAUUAACAGUUG [JR_SHM208a_Sub017] (puzzle: Sensor for hsa-mir-208a)
Result :: 53

Query :: Now this one: GGAGCCGGUACUGAGGAUAUUCAUAUUAAAACAUGAGGAUCACCCAUGUAGGCCAGAAGGCCUUGGGAGAAGGCAGGCCAGCUCG [Atgexeedri - 4] (puzzle: Same State 2)
Result :: 270

Query :: Same for ACAAGCUUUUUGCUCCUCUUAUGUCCGAAACAUGAGGAUCACCCAUGUAUAGAUUGUGUGUUGUUGUAGAUGCAAGA [JR_SHM208A_Sub061] (puzzle: Sensor for hsa-mir-208a)
Result :: 72

Query :: And what about the sequence CAGCGCUGUCGAGAGGAUAUGCGGUGAUGGACAUGAGGAUCACCCAUGUUAGCGAUGGCAUUACGGUAGAAGGCUCUACAGCUGC [Soteed - 4] (puzzle: Same State 2) ?
Result :: 26

Query :: And the next one, AAAAGACAUGAGGAUCACCCAUGUACCAGGUCCACAGGAUAUCAUGCGUGGUUGAAUUCAUGAGAAGGGUGAGACA [Getied] (puzzle: Same State 1) ?
Result :: 188
